# System: KB
# method summary: Cytotoxicity against human KB cells assessed as inhibition of cell growth after 3 days by MTT assay
# Type: functional, cell-based
# assay conditions: 72 h
pIC50: −log10 of the molar value.
experimental endpoint: pIC50

Guide cases for pIC50, answers given:
| mol | reading |
| --- | --- |
| CC(=O)N/C(=C\c1ccco1)C(=O)N[C@H](C(=O)N(C)[C@H](/C=C(\C)C(=O)O)C(C)C)C(C)(C)C | 6.73 |
| CCOC(=O)/C(C)=C/[C@H](C(C)C)N(C)C(=O)[C@@H](NC(=O)/C(=C/c1cccc(OC)c1)NC(C)=O)C(C)(C)C | < 6.57 |
| CC(=O)N/C(=C\c1ccc(Br)cc1)C(=O)N[C@H](C(=O)N(C)[C@H](/C=C(\C)C(=O)O)C(C)C)C(C)(C)C | < 6.57 |

[Q] Would you mind telling me what pIC50 value was observed for "CC(=O)N/C(=C\c1ccc(Br)cc1)C(=O)N[C@H](C(=O)N[C@H](/C=C(\C)C(=O)O)C(C)C)C(C)(C)C" ?
[A] < 6.57

* * *

Reported IC50 by item:
# Test system: HepG2
# method summary: Cytotoxicity against human HepG2 cells assessed as inhibition of cell growth after 3 days by MTT assay
# Assay type: functional, cell-based
# assay conditions: HepG2, 72 h
Express it in nM; write the number only.

[Q] Quick one: IC50 for "COc1ccc(/C=C(\NC(C)=O)C(=O)N[C@H](C(=O)N(C)[C@H](/C=C(\C)C(=O)O)C(C)C)C(C)(C)C)cc1" ?
[A] 63.8

[Q] Please report the recorded IC50 for "CC(=O)N/C(=C\c1ccco1)C(=O)N[C@H](C(=O)N[C@H](/C=C(\C)C(=O)O)C(C)C)C(C)(C)C" .
[A] 17.8

* * *

# Tested on: HepG2
# method summary: Cytotoxicity against human HepG2 cells assessed as inhibition of cell growth after 3 days by MTT assay
# Assay type: functional, cell-based
# assay conditions: HepG2, 72 h
experimental endpoint: pIC50
# pIC50 is unitless: minus log10 of the molar concentration; print number only

| mol | pIC50 |
| --- | --- |
| CCOC(=O)/C(C)=C/[C@@H](NC(=O)[C@@H](NC(=O)/C(=C/c1ccc2ccccc2c1)NC(C)=O)C(C)(C)C)C(C)C | 7.40 |

Now look at this one.
[Q] May I ask what pIC50 has been recorded for "CCOC(=O)/C(C)=C/[C@H](C(C)C)N(C)C(=O)[C@@H](NC(=O)/C(=C/c1ccoc1)NC(C)=O)C(C)(C)C" ?
[A] 7.79

* * *

# System: HepG2
# method summary: Cytotoxicity against human HepG2 cells assessed as inhibition of cell growth after 3 days by MTT assay
# Type: functional, cell-based
# assay conditions: HepG2, 72 h
Listed here are compounds together with their documented IC50.
Response body: numeric value in nM, unit text excluded.

| mol | IC50 (nM) |
| --- | --- |
| CC(=O)N/C(=C\c1ccoc1)C(=O)N[C@H](C(=O)N(C)[C@H](/C=C(\C)C(=O)O)C(C)C)C(C)(C)C | 149 |
| CCOC(=O)/C(C)=C/[C@@H](NC(=O)[C@@H](NC(=O)/C(=C/c1ccoc1)NC(C)=O)C(C)(C)C)C(C)C | 67.3 |

[Q] Look up IC50: "CC(=O)N/C(=C\c1ccc2ccccc2c1)C(=O)N[C@H](C(=O)N[C@H](/C=C(\C)C(=O)O)C(C)C)C(C)(C)C"
[A] 33.4

[Q] Using the record for "CCOC(=O)/C(C)=C/[C@@H](NC(=O)[C@@H](NC(=O)/C(=C/c1cccc(OC)c1)NC(C)=O)C(C)(C)C)C(C)C" , report its IC50.
[A] 47.7

* * *

Listed next: entries and their corresponding IC50.
# Tested on: KB
# method summary: Cytotoxicity against human KB cells assessed as inhibition of cell growth after 3 days by MTT assay
# Format: functional, cell-based
# assay conditions: 72 h

Reference set (3 entries):
| compound | measured target | IC50 |
| --- | --- | --- |
| CCOC(=O)/C(C)=C/[C@@H](NC(=O)[C@@H](NC(=O)/C(=C/c1cccc(OC)c1)NC(C)=O)C(C)(C)C)C(C)C | KB | 77.4 nM |
| CC(=O)N/C(=C\c1ccsc1)C(=O)N[C@H](C(=O)N(C)[C@H](/C=C(\C)C(=O)O)C(C)C)C(C)(C)C | KB | 234 nM |
| CCOC(=O)/C(C)=C/[C@@H](NC(=O)[C@@H](NC(=O)/C(=C/c1ccco1)NC(C)=O)C(C)(C)C)C(C)C | KB | 160 nM |

Switching to the query record.
[Q] State its IC50 on KB: CC(=O)O[C@H]1C(=O)[C@@]2(C)[C@H]([C@H](OC(=O)c3ccccc3)[C@]3(O)C[C@H](OC(=O)[C@H](O)[C@@H](NC(=O)c4ccccc4)c4ccccc4)C(C)=C1C3(C)C)[C@]1(OC(C)=O)CO[C@@H]1C[C@@H]2O [PACLITAXEL]
[A] 3.9 nM

* * *

# System: HepG2
# method summary: Cytotoxicity against human HepG2 cells assessed as inhibition of cell growth after 3 days by MTT assay
# Type: functional, cell-based
# assay conditions: HepG2, 72 h
Recorded pIC50 for the following molecules
# pIC50: negative log10 of molar concentration; output just the value

These solved cases illustrate the format of a correct answer.
| mol | experimental endpoint | reading |
| --- | --- | --- |
| CC(=O)N/C(=C\c1ccsc1)C(=O)N[C@H](C(=O)N(C)[C@H](/C=C(\C)C(=O)O)C(C)C)C(C)(C)C | pIC50 | 7.20 |
| CCOC(=O)/C(C)=C/[C@H](C(C)C)N(C)C(=O)[C@@H](NC(=O)/C(=C/c1ccc(OC)cc1)NC(C)=O)C(C)(C)C | pIC50 | 8.43 |
| CCOC(=O)/C(C)=C/[C@H](C(C)C)N(C)C(=O)[C@@H](NC(=O)/C(=C/c1ccc2ccccc2c1)NC(C)=O)C(C)(C)C | pIC50 | 7.64 |
| CC(=O)N/C(=C\c1ccc2ccccc2c1)C(=O)N[C@H](C(=O)N(C)[C@H](/C=C(\C)C(=O)O)C(C)C)C(C)(C)C | pIC50 | 7.89 |
| CCOC(=O)/C(C)=C/[C@H](C(C)C)N(C)C(=O)[C@@H](NC(=O)/C(=C/c1ccco1)NC(C)=O)C(C)(C)C | pIC50 | 7.50 |

Next molecule, pIC50 to be filled in.
[Q] Endpoint output: pIC50 of "CC(=O)O[C@H]1C(=O)[C@@]2(C)[C@H]([C@H](OC(=O)c3ccccc3)[C@]3(O)C[C@H](OC(=O)[C@H](O)[C@@H](NC(=O)c4ccccc4)c4ccccc4)C(C)=C1C3(C)C)[C@]1(OC(C)=O)CO[C@@H]1C[C@@H]2O" . Value?
[A] 9.72

* * *

# Test system: HepG2
# method summary: Cytotoxicity against human HepG2 cells assessed as inhibition of cell growth after 3 days by MTT assay
# Assay type: functional, cell-based
# assay conditions: HepG2, 72 h
experimental endpoint: IC50

[Q] What does the record list as IC50 for "CC(=O)N/C(=C\c1cccc(Br)c1)C(=O)N[C@H](C(=O)N[C@H](/C=C(\C)C(=O)O)C(C)C)C(C)(C)C" ?
[A] > 269 nM

[Q] Using the record for "CCOC(=O)/C(C)=C/[C@@H](NC(=O)[C@@H](NC(=O)/C(=C/c1ccc(OC)cc1)NC(C)=O)C(C)(C)C)C(C)C" , report its IC50.
[A] > 269 nM

[Q] Given the compound "COc1cccc(/C=C(\NC(C)=O)C(=O)N[C@H](C(=O)N(C)[C@H](/C=C(\C)C(=O)O)C(C)C)C(C)(C)C)c1" , what is its reported IC50?
[A] > 269 nM

[Q] Need IC50, item "CC(=O)N/C(=C\c1ccc(Br)cc1)C(=O)N[C@H](C(=O)N(C)[C@H](/C=C(\C)C(=O)O)C(C)C)C(C)(C)C"
[A] > 269 nM

* * *

Listed next: entries and their corresponding IC50.
# System: KB
# method summary: Cytotoxicity against human KB cells assessed as inhibition of cell growth after 3 days by MTT assay
# Assay type: functional, cell-based
# assay conditions: 72 h

Some molecules with recorded IC50:
| mol | IC50 |
| --- | --- |
| CCOC(=O)/C(C)=C/[C@@H](NC(=O)[C@@H](NC(=O)/C(=C/c1ccc(Br)cc1)NC(C)=O)C(C)(C)C)C(C)C | > 269 nM |
| CCOC(=O)/C(C)=C/[C@H](C(C)C)N(C)C(=O)[C@@H](NC(=O)/C(=C/c1ccc2ccccc2c1)NC(C)=O)C(C)(C)C | 23 nM |

Now for the molecule whose IC50 we want.
[Q] Recorded IC50 for "CCOC(=O)/C(C)=C/[C@@H](NC(=O)[C@@H](NC(=O)/C(=C/c1ccsc1)NC(C)=O)C(C)(C)C)C(C)C" , please?
[A] 107 nM
